// values below are reported switch fluorescence ratio
# Tested on: ATP;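 further: ATP exposure 15 min at 22 °C before imaging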
# Method Description: switch fluorescence ratio, 500 uM ATP over buffer (Cy3 cluster intensity, sum of 5 cycles each) (fold (ratio)); higher = stronger signal-on switching upon ATP binding; sequences stand for … in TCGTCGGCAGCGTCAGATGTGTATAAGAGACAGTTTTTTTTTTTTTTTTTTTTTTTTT…TC
# Details: aptamer strand: ATP DNA aptamer (quencher-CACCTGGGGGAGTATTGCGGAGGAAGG + anchor), 100 nM annealed; ATP concentration: 500 uM
Just the number, please, no unit attached.

{"Chain Sequence": "ATCTCGGCCG", "switch fluorescence ratio": 0.986}
{"Chain Sequence": "TTGGACTAAA", "switch fluorescence ratio": 1.06}
{"Chain Sequence": "TTTTCCCCCT", "switch fluorescence ratio": 1.08}
{"Chain Sequence": "CGTATCGTGG", "switch fluorescence ratio": 1.03}
{"Chain Sequence": "GGGTTTGATG", "switch fluorescence ratio": 0.984}

Now look at this entry.
// recorded switch fluorescence ratio for `CTGATAGGAT` : 1.22
